- System: K. pneumoniae LMG20218
- Conditions: MIC of GNP alone
No end group written: not given here.
Property Measured: MICb (µM)

# Substance, Property Measured, Unit Spec, Value Relation Sign, Experimental Result
data = [
    ("AIVQRIKKWLR-NH2 [GNP8-3]", "MICb", "µM", "=", 24),
    ("RIVQRIKKWR-NH2 [GNP8-6]", "MICb", "µM", ">", 256),
    ("KIVQRIKKWLR-NH2 [GNP8-2]", "MICb", "µM", "=", 32),
    ("RIVQRIKKWL-NH2 [GNP8-1]", "MICb", "µM", "=", 64),
    ("RIRKRIKKWLR-NH2 [GNP8-4]", "MICb", "µM", ">", 256),
    ("RIKRRIKKWLR-NH2 [GNP8-5]", "MICb", "µM", ">", 256),
]

----------
- Tested on: E. coli LMG15862
- Conditions: MIC of GNP in combination with vancomycin at the MICac concentration
No end group written: not given here.
Entries and their measured MICbc follow.

# Substance, MICbc (µM)
measured = [
    ("RIVQRIKKWR-NH2 [GNP8-6]", 16),
    ("RIVQRIKKWL-NH2 [GNP8-1]", 4),
    ("RIRKRIKKWLR-NH2 [GNP8-4]", 2),
    ("RIKRRIKKWLR-NH2 [GNP8-5]", 3),
    ("AIVQRIKKWLR-NH2 [GNP8-3]", 3),
    ("KIVQRIKKWLR-NH2 [GNP8-2]", 2),
]

----------
- Tested on: A. baumannii LMG01041
- Conditions: MIC of GNP alone
No end group written: not given here.
Parameter: MICb. Scope: all listed entries.

# Substance, Test System, Value Relation Sign, MICb / µM
rows = [
    ("KIVQRIKKWLR-NH2 [GNP8-2]", "A. baumannii LMG01041", "=", 128),
    ("RIKRRIKKWLR-NH2 [GNP8-5]", "A. baumannii LMG01041", ">", 256),
    ("RIVQRIKKWR-NH2 [GNP8-6]", "A. baumannii LMG01041", ">", 256),
    ("AIVQRIKKWLR-NH2 [GNP8-3]", "A. baumannii LMG01041", "=", 128),
    ("RIRKRIKKWLR-NH2 [GNP8-4]", "A. baumannii LMG01041", ">", 256),
    ("RIVQRIKKWL-NH2 [GNP8-1]", "A. baumannii LMG01041", "=", 128),
]

----------
Each entry below carries its reported MICb.
- System: A. baumannii LMG01041
- Assay type: cell-based, Acinetobacter baumannii
- Conditions: MIC of GNP alone
- Procedure: The test of synergistic effect was processed by conducting standard chequerboard broth microdilution assays. Nisin (Drug X) was loaded two fold serially diluted from row 1 to 10 in X-axis while GNPs (Drug Y) were loaded in eight two fold serially diluted concentrations from line A to H in Y-axis (FIG. 1). […] To determine whether the combination therapy is additive, synergistic or antagonistic, fractional inhibitory concentration (FIC) indices were calculated. […]
No end group written: not given here.
Property Measured: MICb (µM)

# Substance, Unit Spec, Value Relation Sign, Experimental Result
records = [
    ("RIKRRIKKWLR-NH2 [GNP8-5]", "µM", ">", 256),
    ("RIVQRIKKWL-NH2 [GNP8-1]", "µM", "=", 128),
    ("KIVQRIKKWLR-NH2 [GNP8-2]", "µM", "=", 128),
    ("RIVQRIKKWR-NH2 [GNP8-6]", "µM", ">", 256),
    ("AIVQRIKKWLR-NH2 [GNP8-3]", "µM", "=", 128),
    ("RIRKRIKKWLR-NH2 [GNP8-4]", "µM", ">", 256),
]
